Let's go through some IC50 measurements on Tyrosinase (Agaricus bisporus) together.
Sequence (O42713 whole entry): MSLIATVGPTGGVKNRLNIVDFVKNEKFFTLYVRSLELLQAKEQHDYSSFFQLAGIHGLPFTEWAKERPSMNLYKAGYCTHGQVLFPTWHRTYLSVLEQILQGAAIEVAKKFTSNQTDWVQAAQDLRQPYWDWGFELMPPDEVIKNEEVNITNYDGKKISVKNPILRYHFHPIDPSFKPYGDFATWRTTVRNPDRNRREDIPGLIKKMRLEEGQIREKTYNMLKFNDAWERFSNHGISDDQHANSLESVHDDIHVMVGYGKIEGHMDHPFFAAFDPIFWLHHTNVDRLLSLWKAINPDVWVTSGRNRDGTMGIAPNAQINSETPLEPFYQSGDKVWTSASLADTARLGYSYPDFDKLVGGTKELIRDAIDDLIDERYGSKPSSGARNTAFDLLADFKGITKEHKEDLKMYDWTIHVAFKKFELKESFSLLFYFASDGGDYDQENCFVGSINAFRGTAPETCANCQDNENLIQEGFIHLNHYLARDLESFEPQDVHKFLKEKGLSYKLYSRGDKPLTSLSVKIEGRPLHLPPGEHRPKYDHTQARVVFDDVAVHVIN
Answer format: numeric, µM implied, no suffix.

Reference set (7 entries):
[[record]]
molecule = "COCCOCCOc1ccc(CC2C(=O)NC(=S)NC2=O)cc1"
unit_spec = "µM"
endpoint_result = 132

[[record]]
molecule = "O=C1NC(=O)C(=Cc2ccc(O)cc2)C(=O)N1"
unit_spec = "µM"
endpoint_result = 14

[[record]]
molecule = "COCCOc1ccc(C=C2C(=O)NC(=O)NC2=O)cc1"
unit_spec = "µM"
endpoint_result = 75.4

[[record]]
molecule = "COCCCCOc1ccc(C=C2C(=O)NC(=S)NC2=O)cc1"
unit_spec = "µM"
endpoint_result = 77.8

[[record]]
molecule = "CCCCOCCOc1ccc(C=C2C(=O)NC(=S)NC2=O)cc1"
unit_spec = "µM"
endpoint_result = 107

[[record]]
molecule = "O=C1NC(=S)NC(=O)C1=Cc1ccc(O)cc1"
unit_spec = "µM"
endpoint_result = 14.5

[[record]]
molecule = "O=Cc1ccc(O)cc1 [4-HYDROXYBENZALDEHYDE]"
unit_spec = "µM"
endpoint_result = 1220


# ---- query molecule ----
Query string: Find IC50 (Tyrosinase (Agaricus bisporus)) for the entry `COCCOc1ccc(CC2C(=O)NC(=S)NC2=O)cc1`
Result string: 113
